Source listed as the SangsterLogP compilation.

- Measurement Description: method code SF-AS, from DOI: 10.1021/jf00107a040
Classification field: enter y for logP values not below 2, n for values below it.

Below are worked cases with known answers.
{"Smiles Input": "O=C(Nc1ccccc1)NC1CCCCCC1", "Answer Label": "y"}
{"Smiles Input": "COc1ccc(NC(C)=O)cc1Cl", "Answer Label": "n"}
{"Smiles Input": "CC(=O)Nc1cccc(F)c1", "Answer Label": "n"}
{"Smiles Input": "COc1cccc(NC(=O)N(C)C)c1", "Answer Label": "n"}

Check if logP >= 2 (inclusive). Item: CC(=O)Nc1cccc(C)c1
n

Check if logP >= 2 (inclusive). Item: O=[N+]([O-])c1ccc(Br)cc1
y

Check if logP >= 2 (inclusive). Item: CN(C)C(=O)Nc1cccc(F)c1
n

Check if logP >= 2 (inclusive). Item: CNC(=O)Nc1ccccc1
n

Check if logP >= 2 (inclusive). Item: Cc1ccc(NC(=O)N(C)C)cc1
n

Check if logP >= 2 (inclusive). Item: CCCOC(=O)Nc1ccccc1
y

* * *

Can you tell me logP for the items I'm about to list?
- Measurement Description: method code SF-AS, from DOI: 10.1021/jf00107a040
Numbers only.

# count of solved cases: 5
{"Smiles Input": "CC(=O)Nc1cccc(C(F)(F)F)c1", "logP": 2.2}
{"Smiles Input": "CC(=O)Nc1ccc(Br)cc1", "logP": 2.14}
{"Smiles Input": "O=C(Nc1ccccc1)NC1CCCC1", "logP": 2.65}
{"Smiles Input": "Cc1cc(NC(N)=O)ccc1F", "logP": 1.59}
{"Smiles Input": "CCOC(=O)Nc1ccccc1", "logP": 2.26}

Record logP for all entries; do not skip any.
1. CNC(=O)Nc1ccc(OC)c(Cl)c1
2. COc1ccc(NC(N)=O)cc1Cl
3. CCCCOC(=O)Nc1ccccc1

1.76
1.37
3.3

* * *

- Measurement Description: method code SF-GLC, from DOI: 10.1021/jf00107a040
Classification field: enter Met for logP values not below 2, Not met for values below it.

Below are worked cases with known answers.
{"Smiles Input": "NC(=O)Nc1cccc(Cl)c1", "Answer Label": "Not met"}
{"Smiles Input": "NC(=O)Nc1cccc(F)c1", "Answer Label": "Not met"}

Check if logP >= 2 (inclusive). Item: CNC(=O)Nc1ccc(Cl)c(Cl)c1
Met

Check if logP >= 2 (inclusive). Item: NC(=O)Nc1cccc(Br)c1
Met

Check if logP >= 2 (inclusive). Item: NC(=O)Nc1cccc(C(F)(F)F)c1
Met

Check if logP >= 2 (inclusive). Item: COC(=O)Nc1ccc(Cl)c(Cl)c1
Met

Check if logP >= 2 (inclusive). Item: NC(=O)Nc1ccc(F)cc1
Not met

* * *

- Measurement Description: method code SF-AS, from DOI: 10.1021/jf00107a040
Can you tell me logP for the items I'm about to list?
Numbers only.

# count of solved cases: 10
{"Smiles Input": "O=C(Nc1ccccc1)NC1CCCCC1", "logP": 2.77}
{"Smiles Input": "CNC(=O)Nc1ccc(C)c(Cl)c1", "logP": 2.61}
{"Smiles Input": "CNC(=O)Nc1cccc(Cl)c1", "logP": 2.18}
{"Smiles Input": "Cc1cccc(NC(N)=O)c1", "logP": 1.29}
{"Smiles Input": "Cc1cc(NC(N)=O)ccc1Br", "logP": 2.49}
{"Smiles Input": "Cc1cc(C)cc(NC(=O)N(C)C)c1", "logP": 1.9}
{"Smiles Input": "COc1ccc(NC(=O)N(C)C)cc1", "logP": 0.83}
{"Smiles Input": "COc1ccc(NC(=O)N(C)C)cc1Cl", "logP": 1.64}
{"Smiles Input": "Cc1cc(NC(=O)N(C)C)cc(C)c1Br", "logP": 2.92}
{"Smiles Input": "CON(C)C(=O)Nc1ccc(Br)c(Cl)c1", "logP": 3.09}

Record logP for all entries; do not skip any.
1. CN(C)C(=O)Nc1ccc(F)cc1
2. NC(=O)Nc1ccc(Oc2ccccc2)cc1
3. Cc1ccc(NC(=O)N(C)C)cc1Cl

1.13
2.8
2.41

Record logP for all entries; do not skip any.
1. Cc1cc(N)ccc1Br
2. CN(C)C(=O)Nc1cccc(C(F)(F)F)c1

1: 2.53; 2: 2.42

* * *

Can you tell me logP for the items I'm about to list?
- Measurement Description: method code SF-AS, from DOI: 10.1021/jf00107a040
Numbers only.

{"Smiles Input": "CC(=O)Nc1cccc(Br)c1", "logP": 2.04}

Record logP for all entries; do not skip any.
1. CN(C)C(=O)Nc1cccc(Cl)c1
2. CC(=O)Nc1cccc(Cl)c1
3. CC(C)OC(=O)Nc1ccccc1
4. O=C(Nc1ccccc1)NC1CC1
5. CCCCCOC(=O)Nc1ccccc1

2.01
2.02
2.6
1.65
3.8

* * *

- Measurement Description: method code SF-GLC, from DOI: 10.1021/jf00107a040
Observed Property: logP
Give bare numbers.

# count of solved cases: 4
{"Smiles Input": "NC(=O)Nc1ccc(Br)cc1", "logP": 1.98}
{"Smiles Input": "NC(=O)Nc1ccccc1F", "logP": 0.88}
{"Smiles Input": "NC(=O)Nc1ccc(Cl)c(Cl)c1", "logP": 2.64}
{"Smiles Input": "NC(=O)Nc1ccccc1Cl", "logP": 1.27}

# evaluate next
Entry COc1ccc(N)cc1Cl — recorded logP = 1.85
